test: Half life of the compound in pH 9 after 3 to 24 hrs by HPLC; assay type: physicochemical
recorded.metric: half-life (h)
# number only, unit h dropped from output

Any idea what its half-life is? The molecule is COc1ccc([C@@H]2[C@@H](Oc3ccccc3)C(=O)N2c2cc(OC)c(OC)c(OC)c2)cc1O (relative stereo)
11

Kindly review the next molecule as well.
Any idea what its half-life is? The molecule is COc1ccc([C@@H]2[C@@H](Oc3ccccc3)C(=O)N2c2cc(OC)c(OC)c(OC)c2)cc1N (relative stereo)
18

---

system: MCF7; experiment: Antiproliferative activity against human MCF7 cells assessed as cell viability pre-incubated for 24 hrs with CO2 followed by compound addition after 72 hrs by MTT assay; assay type: functional, cell-based
Recorded pIC50 by entry
Please report pIC50 as the negative decimal logarithm of the molar concentration, giving only the number.

Any idea what its pIC50 is? The molecule is COc1ccc([C@@H]2[C@H](Oc3ccccc3)C(=O)N2c2cc(OC)c(OC)c(OC)c2)cc1OC(=O)CCCc1ccc(N(CCCl)CCCl)cc1 (relative stereo)
6.39

Continuing:
Any idea what its pIC50 is? The molecule is O=C(O)CCCc1ccc(N(CCCl)CCCl)cc1
4.01

Any idea what its pIC50 is? The molecule is COc1cc(N2C(=O)[C@@H](Oc3ccccc3)[C@H]2c2cccc([N+](=O)[O-])c2)cc(OC)c1OC (relative stereo)
4.52

Any idea what its pIC50 is? The molecule is COc1cc(N2C(=O)[C@@H](Oc3ccccc3)[C@H]2c2cccc3ccccc23)cc(OC)c1OC (relative stereo)
4.28

Any idea what its pIC50 is? The molecule is COc1cc(N2C(=O)[C@@H](Oc3ccccc3)[C@H]2c2cccc(O)c2)cc(OC)c1OC (relative stereo)
4.27

Any idea what its pIC50 is? The molecule is COc1ccc([C@@H]2[C@@H](Oc3ccccc3)C(=O)N2c2cc(OC)c(OC)c(OC)c2)cc1 (relative stereo)
5.16

Any idea what its pIC50 is? The molecule is COc1ccc([C@@H]2[C@@H](Oc3ccccc3)C(=O)N2c2cc(OC)c(OC)c(OC)c2)cc1O (relative stereo)
7.42

Any idea what its pIC50 is? The molecule is COc1cc(N2C(=O)[C@@H](Oc3ccccc3)[C@H]2c2cccc(N)c2)cc(OC)c1OC (relative stereo)
4.77

Any idea what its pIC50 is? The molecule is COc1cc([C@@H]2[C@H](Oc3ccccc3)C(=O)N2c2cc(OC)c(OC)c(OC)c2)cc(OC)c1OC (relative stereo)
4.54

Any idea what its pIC50 is? The molecule is CCOC(=O)/C=C/c1ccc([C@@H]2[C@H](Oc3ccccc3)C(=O)N2c2cc(OC)c(OC)c(OC)c2)cc1 (relative stereo)
4.06

Any idea what its pIC50 is? The molecule is COc1ccc([C@@H]2[C@H](Oc3ccccc3)C(=O)N2c2cc(OC)c(OC)c(OC)c2)c([N+](=O)[O-])c1O (relative stereo)
4.05

Any idea what its pIC50 is? The molecule is COc1ccc([C@@H]2[C@H](Oc3ccccc3)C(=O)N2c2cc(OC)c(OC)c(OC)c2)cc1[N+](=O)[O-] (relative stereo)
4.16

Any idea what its pIC50 is? The molecule is COc1cc([N+](=O)[O-])c([C@@H]2[C@H](Oc3ccccc3)C(=O)N2c2cc(OC)c(OC)c(OC)c2)cc1O (relative stereo)
4.23

Any idea what its pIC50 is? The molecule is COc1ccc([C@@H]2[C@H](Oc3ccccc3)C(=O)N2c2cc(OC)c(OC)c(OC)c2)cc1O (relative stereo)
6.42
